A collection of compounds and their measured IC50
- assay-system: urinary angiotensin-converting enzyme (uACE) (Homo sapiens, UniProt P12821)
- Construct: from tissue; host or cells: human urine (native, or retentate of 10 kDa / 30 kDa Vivaspin 20 membrane filters)
- Sequence (P12821 30-1232 limits assumed): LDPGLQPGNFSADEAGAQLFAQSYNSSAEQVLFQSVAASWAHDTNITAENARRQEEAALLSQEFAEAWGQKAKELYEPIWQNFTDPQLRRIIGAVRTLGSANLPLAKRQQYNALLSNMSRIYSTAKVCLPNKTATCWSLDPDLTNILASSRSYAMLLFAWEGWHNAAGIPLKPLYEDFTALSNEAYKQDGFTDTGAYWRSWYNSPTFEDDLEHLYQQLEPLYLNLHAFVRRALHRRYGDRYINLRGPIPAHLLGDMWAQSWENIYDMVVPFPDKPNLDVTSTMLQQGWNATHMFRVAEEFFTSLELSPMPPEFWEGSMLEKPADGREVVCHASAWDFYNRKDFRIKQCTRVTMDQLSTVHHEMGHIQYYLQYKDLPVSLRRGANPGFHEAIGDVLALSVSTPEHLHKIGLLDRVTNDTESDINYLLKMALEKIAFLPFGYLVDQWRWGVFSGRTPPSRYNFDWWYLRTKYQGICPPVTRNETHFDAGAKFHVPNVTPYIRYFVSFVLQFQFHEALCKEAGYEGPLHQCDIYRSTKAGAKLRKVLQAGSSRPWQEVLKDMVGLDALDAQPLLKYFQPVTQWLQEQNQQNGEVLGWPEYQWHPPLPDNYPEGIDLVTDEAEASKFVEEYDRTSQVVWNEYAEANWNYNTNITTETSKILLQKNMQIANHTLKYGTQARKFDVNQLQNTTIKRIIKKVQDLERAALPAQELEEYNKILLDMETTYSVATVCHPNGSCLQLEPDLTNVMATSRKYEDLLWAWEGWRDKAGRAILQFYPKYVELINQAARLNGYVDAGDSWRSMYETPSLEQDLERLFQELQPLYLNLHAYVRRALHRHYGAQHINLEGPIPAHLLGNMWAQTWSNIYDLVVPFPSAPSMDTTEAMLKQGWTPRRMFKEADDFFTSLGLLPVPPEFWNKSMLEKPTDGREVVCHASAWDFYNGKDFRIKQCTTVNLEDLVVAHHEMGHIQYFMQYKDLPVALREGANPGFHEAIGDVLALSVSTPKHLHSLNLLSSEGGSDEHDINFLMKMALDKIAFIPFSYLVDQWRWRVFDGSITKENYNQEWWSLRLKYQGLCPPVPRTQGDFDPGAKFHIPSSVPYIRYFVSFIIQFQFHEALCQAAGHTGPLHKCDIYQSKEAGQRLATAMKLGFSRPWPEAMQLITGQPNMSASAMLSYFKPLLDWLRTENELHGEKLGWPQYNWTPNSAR
- experiment-summary: Fluorescent kinetic ACE activity assay on inhibitor-free ACE purified from urine (30 kDa retentate) with potential endogenous inhibitors
- Format: biochemical
- measurement-parameters: ACE purified from urine (30 kDa retentate); two-phase decay fit
assay-metric: IC50

O=c1[nH]c(=O)c2[nH]c(=O)[nH]c2[nH]1	3.61 mM
CCC1=C(C)C(Cc2[nH]c(Cc3[nH]c(CC4NC(=O)C(C)=C4CC)c(C)c3CCC(=O)O)c(CCC(=O)O)c2C)NC1=O (centres unmarked)	0.298 mM

----------
- assay-system: urinary angiotensin-converting enzyme (uACE) (Homo sapiens)
- Construct: from tissue; host or cells: human urine (native, or retentate of 10 kDa / 30 kDa Vivaspin 20 membrane filters)
- experiment-summary: Fluorescent kinetic ACE activity assay on inhibitor-free ACE purified from urine (30 kDa retentate) with potential endogenous inhibitors
- Format: biochemical
- measurement-parameters: ACE purified from urine (30 kDa retentate); two-phase decay fit; listed as urobilinogen
pIC50: −log10 of the molar value.
assay-metric: pIC50

CCC1=C(C)C(Cc2[nH]c(Cc3[nH]c(CC4NC(=O)C(C)=C4CC)c(C)c3CCC(=O)O)c(CCC(=O)O)c2C)NC1=O (stereo not shown)	3.53
